target: UDP-glucose 6-dehydrogenase (Streptococcus pyogenes); test: Inhibition of Streptococcus pyogenes UDPGDH expressed in Escherichia coli assessed as inhibitior constant after 20 to 120 secs by UV-VIS spectroscopic analysis
Sequence (P0C0F4 whole entry): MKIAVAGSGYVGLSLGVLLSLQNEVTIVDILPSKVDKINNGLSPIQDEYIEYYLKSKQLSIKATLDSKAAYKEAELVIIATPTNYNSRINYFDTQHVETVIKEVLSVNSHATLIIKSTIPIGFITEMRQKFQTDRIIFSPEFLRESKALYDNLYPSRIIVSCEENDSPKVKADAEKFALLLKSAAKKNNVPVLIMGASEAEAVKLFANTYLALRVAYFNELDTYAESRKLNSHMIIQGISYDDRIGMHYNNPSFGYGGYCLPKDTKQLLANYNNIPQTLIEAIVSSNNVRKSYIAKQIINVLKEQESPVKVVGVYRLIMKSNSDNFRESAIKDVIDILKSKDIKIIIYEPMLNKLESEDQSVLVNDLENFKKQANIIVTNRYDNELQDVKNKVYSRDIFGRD

[
  {
    "MOLECULE": "Sc1ncnc2nc[nH]c12 [MERCAPTOPURINE ANHYDROUS]",
    "TARGET OR TEST SYSTEM": "UDP-glucose 6-dehydrogenase (Streptococcus pyogenes)",
    "Ki, µM": 288
  },
  {
    "MOLECULE": "O=c1[nH]c(=S)c2[nH]c(=O)[nH]c2[nH]1",
    "TARGET OR TEST SYSTEM": "UDP-glucose 6-dehydrogenase (Streptococcus pyogenes)",
    "Ki, µM": 7
  }
]

###

test system: U-937; experiment: Antiproliferative activity against human U937 cells assessed as reduction in cell viability after 72 hrs by alamar blue assay; type: functional, cell-based; conditions: U-937, 72 h

[
  {
    "STRUCTURE": "COCOc1cc(OCOC)c(C(=O)/C=C/c2ccccc2)c(OCOC)c1",
    "IC50 / µM": 7.4
  }
]
